Tested on: HCK
Conditions: concentration: 1 μM, replicates: in singlicate; n = 1;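 further: KINOMEscan kinase panel screen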

| molecule | assay system | %Inh (%) |
| --- | --- | --- |
| Cl.NC(=O)c1cccc(Nc2nccc(Nc3ccc(Oc4c(Cl)cccc4Cl)c(Cl)c3)n2)c1 [GW659009] | HCK | 77 |
| C[C@@H]1CC[C@@H](C(=O)Nc2ccccc2)CN1c1cc(-c2ccc3c(N)n[nH]c3c2)nc(N)n1 [GSK2286062] | HCK | 0 |
| Fc1ccc(-c2ncn(C3CCNCC3)c2-c2ccnc(Oc3ccc(-c4ccccc4)cc3)n2)cc1 [SB-245391] | HCK | 31 |
| O=C(Nc1cccc(Oc2ccc3nc(NC(=O)C4CC4)cn3n2)c1)c1ccccc1C(F)(F)F | HCK | 69 |
| c1ccc(Oc2ccc(Nc3ccnc4cc(-c5ccc(CNCCN6CCOCC6)o5)ccc34)cc2)nc1 [GW567145] | HCK | 76 |
| COc1cc2c(cc1OCCN1CCNCC1)ncc1c3ccc(C#N)cc3[nH]c21 | HCK | 3 |
| O=C(Nc1ccccc1F)NC1CCN(c2ccnc(Nc3ccc(F)cc3)n2)CC1 [GSK1379800] | HCK | 0 |
| CCn1c(-c2nonc2N)nc2c(C#CC(C)(C)O)nc(OC[C@H](N)c3ccccc3)cc21 [GSK943949] | HCK | 0 |
| CCn1c(-c2nonc2N)nc2c(C#CC(C)(C)O)ncc(OCCCCN)c21.O=C(O)C(F)(F)F.O=C(O)C(F)(F)F [GSK507274] | HCK | 0 |
| Cl.Cl.NCC(NC(=O)c1cc(-c2ccccc2)c(-c2ccnc3[nH]ccc23)s1)c1ccccc1 (stereo not drawn) [GSK1321561] | HCK | 0 |
| Cc1ccc(C(=O)N2CC[C@@H](O)C2)cc1-n1c(C)cc(OCc2ccc(F)cc2F)c(Br)c1=O | HCK | 66 |
| Cc1ccc(C(=O)Nc2ccc(Nc3ccnc4cc(-c5nccs5)ccc34)cc2O)cc1.Cl [GW494702] | HCK | 93.4 |
| COc1cc(Nc2nccc(-c3c(-c4cccc(NC(=O)c5c(F)cccc5F)c4)nn4ccccc34)n2)cc(OC)c1OC [GSK323521] | HCK | 0 |
| NCCCC(NC(=O)c1cc(Br)c(-c2ccnc3[nH]ccc23)s1)c1ccccc1.O=C(O)C(F)(F)F.O=C(O)C(F)(F)F (stereo not drawn) [GSK1287544] | HCK | 0 |
| CC(C)c1nc(-c2cccc(NS(=O)(=O)c3c(F)cccc3F)c2F)c(-c2ccnc(Nc3ccc(N4CCOCC4)nc3)n2)s1 [GSK2008607] | HCK | 99.5 |

====

%Inh listing for selected compounds.
System: PIP5K1C
Conditions: concentration: 1 μM, replicates: in singlicate; n = 1
attribute measured: %Inh

| compound structure | attribute measured | result |
| --- | --- | --- |
| COc1cccc(C2=C(Nc3ccc(Cl)c(C(=O)O)c3)C(=O)NC2=O)c1 | %Inh | 60% |
| Cn1cc(-c2ccc3c(c2)CCN3C(=O)Cc2cccc(Cl)c2)c2c(N)ncnc21 | %Inh | 22% |
| Cl.c1ccc(-c2ccc3c(Nc4ccc5[nH]ccc5c4)ccnc3c2)nc1 | %Inh | 66% |
| Fc1ccc(-c2ncn(C3CCNCC3)c2-c2ccnc(Oc3ccc(-c4ccccc4)cc3)n2)cc1 | %Inh | 24% |
| Cc1cccc(Nc2nc(N[C@H]3CCNC3)ncc2C(N)=O)c1.Cl | %Inh | 76% |

====

%Inh listing for selected molecules.
Tested on: FES
Conditions: concentration: 1 μM, replicates: in singlicate; n = 1

| molecule | assay system | %Inh |
| --- | --- | --- |
| O=C(Nc1cccc(-c2nn3ccccc3c2-c2ccnc(Nc3cccc(F)c3)n2)c1)c1c(F)ccc(F)c1Cl [GSK357952] | FES | 6% |
| CN(C)Cc1ccc(-c2ccc3c(Nc4ccc(Oc5ccccn5)cc4)ccnc3c2)o1 [GW567148] | FES | 5% |
| Nc1ncc(-c2cccnc2)c2scc(-c3ccc4c(c3)CCN4C(=O)Cc3ccccc3)c12 [GSK683281] | FES | 0% |
| O=C(NC1CCN(c2ccnc(Nc3ccc(F)cc3)n2)C1)c1cc2ccccc2s1 (centres unmarked) [GSK1379716] | FES | 12% |
| Cc1cccc(NC(=O)Nc2ccc(Oc3ncnc4ccn(C)c34)cc2)c1 | FES | 0% |
| O=c1[nH]cc(-c2ccc(N3CCOCC3)cc2)c2sc(-c3cn[nH]c3)cc12 [GSK2276055] | FES | 0% |
| COc1ccc(Nc2nccc(N3CCC(NC(=O)Nc4cccc(OC)c4)C3)n2)cc1 (centres unmarked) [GSK1379742] | FES | 9% |
| CSc1cccc2c(-c3ccncn3)c(-c3ccc(F)cc3)nn12 [GW514786] | FES | 0% |
| Cl.Cl.NCC(NCc1ccc(-c2ccnc3[nH]ccc23)s1)c1ccccc1 (centres unmarked) [GSK1321565] | FES | 0% |
| CN1CCN(CCCNc2nccc(-c3c(-c4ccc(F)cc4)nn4cc(C(F)(F)F)ccc34)n2)CC1 [GW621581] | FES | 0% |
| CC(C)(C)c1ccc2nccc(Nc3cccc(O)c3)c2c1 [GW856795] | FES | 0% |
| COc1cc(Nc2nccc(-c3c(-c4cccc(NC(=O)c5c(F)cccc5F)c4)nn4ncccc34)n2)cc(OC)c1OC [GSK327238] | FES | 50% |
| NCCCC(NC(=O)c1cc(Br)c(-c2ccnc3[nH]ccc23)s1)c1ccccc1.O=C(O)C(F)(F)F.O=C(O)C(F)(F)F (centres unmarked) [GSK1287544] | FES | 1% |
| c1ccc(-c2cnc3nccnn23)cc1 [AH20685] | FES | 11% |
| Cc1ccc(F)c(C(=O)Nc2cccc(-c3nn4ccccc4c3-c3ccnc(Nc4cccc(F)c4)n3)c2)c1F [GSK361061] | FES | 0% |
| Cl.Cl.NCC(C(=O)Nc1cc(Br)c(-c2ccnc3[nH]ccc23)s1)c1ccccc1 (centres unmarked) [GSK1269851] | FES | 38% |
| CN(c1ccc(NC(=O)Nc2cc(C(F)(F)F)ccc2F)cc1)c1ccnc(Nc2ccc(S(N)(=O)=O)cc2)n1 [GW809893] | FES | 72% |

====

Test system: NIK
Construct: gene MAP3K14
Conditions: concentration: 1 μM, replicates: in singlicate; n = 1
%Inh listing for selected compounds.
attribute measured: %Inh (%)

| compound | result number |
| --- | --- |
| CN(C)Cc1ccc(-c2ccc3c(Nc4ccc(Oc5ccccn5)cc4)ccnc3c2)o1 [GW567148] | 12 |
| Clc1ccc(-c2nn3ncccc3c2-c2ccnc(Nc3ccc4c(c3)OCCO4)n2)cc1 [GW829116] | 10 |
| Nc1n[nH]c2cnc(-c3ccccc3)cc12 [SB-642124] | 10 |
| CN(c1ccc(NC(=O)Nc2cc(C(F)(F)F)ccc2F)cc1)c1ccnc(Nc2ccc(S(N)(=O)=O)cc2)n1 [GW809893] | 38 |
| Cc1cccc(Nc2nc(N[C@H]3CCNC3)ncc2C(N)=O)c1.Cl [GSK2197149] | 20 |
| FC(F)(F)c1ccc(/C=C/c2cncnc2Nc2ccc3[nH]c(Cc4ccccc4)nc3c2)cc1 [GW709199] | 0 |
| COc1cc2c(cc1OCCN1CCNCC1)ncc1c3ccc(C#N)cc3[nH]c21 | 65 |
| CCCCc1nn2ncccc2c1-c1ccnc(Nc2ccc(N3CCN(C)CC3)cc2)n1 [GW684941] | 11 |
| O=C(Nc1cccc(Oc2ccc3nc(NC(=O)C4CC4)cn3n2)c1)c1ccccc1C(F)(F)F | 0 |

====

Test system: TIE2
Construct: gene TEK
Conditions: concentration: 1 μM, replicates: in singlicate; n = 1
attribute measured: %Inh (%)

| compound | attribute measured | result number |
| --- | --- | --- |
| Cc1ccc(C(=O)N2CC[C@@H](O)C2)cc1-n1c(C)cc(OCc2ccc(F)cc2F)c(Br)c1=O | %Inh | 20 |
| Nc1ncc(-c2cccnc2)c2scc(-c3ccc4c(c3)CCN4C(=O)Cc3ccccc3)c12 [GSK683281] | %Inh | 57 |
| O=c1[nH]cc(-c2ccc(N3CCOCC3)cc2)c2sc(-c3cn[nH]c3)cc12 [GSK2276055] | %Inh | 0 |
| Cl.c1ccc(-c2ccc3c(Nc4ccc5[nH]ccc5c4)ccnc3c2)nc1 [GW440138] | %Inh | 0 |

====

Tested on: ROS1
Settings: concentration: 1 μM, replicates: in singlicate; n = 1
%Inh listing for selected compounds.

| compound | assay system | %Inh (%) |
| --- | --- | --- |
| O=C(Nc1ccccc1F)NC1CCN(c2ccnc(Nc3ccc(F)cc3)n2)CC1 | ROS1 | 0 |
| C[C@@H]1CC[C@@H](C(=O)Nc2ccccc2)CN1c1cc(-c2ccc3c(N)n[nH]c3c2)nc(N)n1 | ROS1 | 14 |
| Cc1ccc(C(=O)N2CC[C@@H](O)C2)cc1-n1c(C)cc(OCc2ccc(F)cc2F)c(Br)c1=O | ROS1 | 0 |
| COC(=O)Nc1nc2ccc(Oc3ccc(NC(=O)Nc4cc(C(F)(F)F)ccc4F)cc3)cc2n1C.Cl | ROS1 | 28 |
| O=C(NC1CCN(c2ccnc(Nc3ccc(F)cc3)n2)C1)c1cc2ccccc2s1 (stereo not shown) | ROS1 | 36 |
| CCS(=O)(=O)c1ccc(OC)c(Nc2nccc(-c3c(-c4cccc(NC(=O)c5c(F)cccc5F)c4)nn4ncccc34)n2)c1 | ROS1 | 0 |
| CCn1c(-c2nonc2N)nc2c(C#CC(C)(C)O)ncc(OCCCCN)c21.O=C(O)C(F)(F)F.O=C(O)C(F)(F)F | ROS1 | 0 |
| Cl.c1ccc(-c2ccc3c(Nc4ccc5[nH]ccc5c4)ccnc3c2)nc1 | ROS1 | 0 |
| Cc1ccc(S(=O)(=O)Nc2ccc(Nc3nccc(Nc4cccc5[nH]ncc45)n3)cc2)cc1 | ROS1 | 25 |
| Cl.Cl.NCC(C(=O)Nc1cc(Br)c(-c2ccnc3[nH]ccc23)s1)c1ccccc1 (stereo not shown) | ROS1 | 12 |
| COc1cccc(-c2ccc3c(NC(=O)C4CC4)n[nH]c3n2)c1 | ROS1 | 0 |
| COc1cc(Nc2nccc(N3CCC(NC(=O)Nc4cccc(C(C)=O)c4)C3)n2)cc(OC)c1OC (stereo not shown) | ROS1 | 30 |
| CSc1cccc2c(-c3ccncn3)c(-c3ccc(F)cc3)nn12 | ROS1 | 0 |
| COc1ccc(Nc2nccc(NCCNC(=O)c3cc4ccccc4s3)n2)cc1 | ROS1 | 9 |
| Cl.c1ccc(-c2ccc3c(Nc4ccc5[nH]ncc5c4)ccnc3c2)nc1 | ROS1 | 0 |
| CN(c1ccc(NC(=O)Nc2cc(C(F)(F)F)ccc2F)cc1)c1ccnc(Nc2ccc(S(N)(=O)=O)cc2)n1 | ROS1 | 95.9 |
